System: 889142-216-R-J1-PDC complex spheroid viability;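 note: spheroids exposed to compounds for seven days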
Experiment: Anticancer human tumor 889142-216-R-J1-PDC patient-derived bladder carcinoma cell line growth inhibition [POLQ]
Conditions: curve of first compound; second compound 0.316 µM
Method: Multicellular complex tumor spheroid response to Polymerase (POL) inhibitors (novobiocin, ART-558, RP6685) in combination with a variety of drugs and investigational agents in selected tumor cell lines The POL inhibitors (novobiocin, ART-558, and RP6685) were evaluated both individually and in combination with standard of care and investigational anticancer small molecules within a complex spheroid model of solid tumors. . […]
pIC50: −log10 of the molar value.
property name: pIC50

INSERT INTO results (molecule, sign_qualifier, value) VALUES
  ('C=CC(=O)N1CCN(c2nc(=O)n(-c3c(C)ccnc3C(C)C)c3nc(-c4c(O)cccc4F)c(F)cc23)C(C)C1 (stereo not given) + Cc1cccc(N(C)C(=O)C2C(O)CCN2c2nc(C)cc(C(F)(F)F)c2C#N)c1', '<', 5.00),
  ('CCc1cc2c(N3CCc4c(cc(Cn5ccnc5)cc4-c4cn(C)nc4C(F)(F)F)C3=O)ccnc2c(OC)n1 + Cc1cccc(N(C)C(=O)C2C(O)CCN2c2nc(C)cc(C(F)(F)F)c2C#N)c1', '<', 5.00),
  ('COc1cc(C2c3cc4c(cc3C(OC3OC5COC(C)OC5C(O)C3O)C3COC(=O)C23)OCO4)cc(OC)c1O (stereo not given) + Cc1cccc(N(C)C(=O)C2C(O)CCN2c2nc(C)cc(C(F)(F)F)c2C#N)c1', '<', 5.00),
  ('COc1cccc2c1C(=O)c1c(O)c3c(c(O)c1C2=O)CC(O)(C(=O)CO)CC3OC1CC(N)C(O)C(C)O1 (stereo not given) + Cc1cccc(N(C)C(=O)C2C(O)CCN2c2nc(C)cc(C(F)(F)F)c2C#N)c1', '=', 6.82),
  ('COc1cccc(OCCCN)c1-c1cc(Nc2cnc(C#N)cn2)n[nH]1 + Nc1ccc(C#CCN(C(=O)Cc2ncc(C(F)(F)F)cc2C(F)(F)F)c2ccc(F)cc2)nn1', '=', 7.03);
